Record form. Attribute: pKi. Fill in for each entry.
Procedure Details: Displacement of [3H]DTG from sigma 2 receptor in rat liver membrane homogenates after 120 mins by scintillation counting analysis
Type: cell membranes
// field semantics: pKi = negative decimal log of concentration (mol/L)

# pKi (compound: COc1ccc(C(=O)C2CCN([C@@H]3Cc4ccccc4C[C@H]3O)CC2)cn1 (racemic) ) is 5.59

# pKi (compound: O=C(c1ccccc1)C1CCN([C@@H]2Cc3ccccc3C[C@H]2O)CC1 (racemic) ) is 6.49

# pKi (compound: Cn1ccc(C(=O)C2CCN([C@@H]3Cc4ccccc4C[C@H]3O)CC2)cc1=O (racemic) ) is 5.67

# pKi (compound: COc1cccnc1C(=O)C1CCN([C@@H]2Cc3ccccc3C[C@H]2O)CC1 (racemic) ) is 5.81

# pKi (compound: Cn1cccc1C(=O)C1CCN([C@@H]2Cc3c(N)cccc3C[C@H]2O)CC1 (racemic) ) is 5.16

# pKi (compound: O=C(c1ccc(F)nc1)C1CCN([C@@H]2Cc3ccccc3C[C@H]2O)CC1 (racemic) ) is 5.76

---

Procedure Details: Displacement of [3H]DTG from sigma 2 receptor in rat liver membrane homogenates after 120 mins by scintillation counting analysis
Assay type: cell membranes
Assay Endpoint: Ki
Remember to put the unit after the number in your answer.

# Ki (molecule: CNc1ccc(C(=O)C2CCN([C@@H]3Cc4ccccc4C[C@H]3O)CC2)cc1 (racemic) ) is 6.18 µM

# Ki (molecule: Cc1ccc(C(=O)C2CCN([C@@H]3Cc4ccccc4C[C@H]3O)CC2)cn1 (racemic) ) is 3.77 µM

# Ki (molecule: O=C(c1ncccc1OCCF)C1CCN([C@@H]2Cc3ccccc3C[C@H]2O)CC1 (racemic) ) is 0.303 µM

# Ki (molecule: CN(C)c1ccc(C(=O)C2CCN([C@@H]3Cc4ccccc4C[C@H]3O)CC2)cc1 (racemic) ) is 4.08 µM

# Ki (molecule: Cc1ccc(C(=O)C2CCN([C@@H]3Cc4c(N)cccc4C[C@H]3O)CC2)cn1 (racemic) ) is 27.5 µM

# Ki (molecule: O=C(c1cccnc1F)C1CCN([C@@H]2Cc3ccccc3C[C@H]2O)CC1 (racemic) ) is 3.53 µM

# Ki (molecule: Cn1ccc(C(=O)C2CCN([C@@H]3Cc4ccccc4C[C@H]3O)CC2)c1 (racemic) ) is 7.71 µM

# Ki (molecule: Cn1c(C(=O)C2CCN([C@@H]3Cc4ccccc4C[C@H]3O)CC2)cccc1=O (racemic) ) is 3.34 µM

# Ki (molecule: O=C(c1ccc(F)cc1)C1CCN([C@@H]2Cc3ccccc3C[C@H]2O)CC1 (relative stereo) ) is 0.251 µM

# Ki (molecule: Cn1cccc1C(=O)C1CCN([C@@H]2Cc3cccc(N)c3C[C@H]2O)CC1 (racemic) ) is 11.4 µM

# Ki (molecule: Cn1cccc1C(=O)C1CCN([C@@H]2Cc3ccccc3C[C@H]2O)CC1 (racemic) ) is 2.55 µM

# Ki (molecule: O=C(c1cccnc1)C1CCN([C@@H]2Cc3ccccc3C[C@H]2O)CC1 (racemic) ) is 3.03 µM

# Ki (molecule: [11CH3]Nc1ccc(C(=O)C2CCN([C@H]3Cc4ccccc4C[C@@H]3O)CC2)cc1 ) is 11.4 µM

# Ki (molecule: O=C(c1ccc(OCCF)nc1)C1CCN([C@@H]2Cc3ccccc3C[C@H]2O)CC1 (racemic) ) is 1.86 µM

# Ki (molecule: Nc1cccc2c1C[C@@H](N1CCC(C(=O)c3cccnc3)CC1)[C@H](O)C2 (racemic) ) is 5.08 µM

# Ki (molecule: O=C(c1cncc(F)c1)C1CCN([C@@H]2Cc3ccccc3C[C@H]2O)CC1 (racemic) ) is 1.69 µM

# Ki (molecule: COc1ccc(C(=O)C2CCN([C@@H]3Cc4c(N)cccc4C[C@H]3O)CC2)cn1 (racemic) ) is 10.8 µM

# Ki (molecule: CNc1ccc(C(=O)C2CCN(C3Cc4ccccc4CC3O)CC2)cc1 (single isomer, unassigned; (+)) ) is 7.77 µM

---

Tested System: Vesicular acetylcholine transporter (Homo sapiens)
Sequence (Q16572 whole entry): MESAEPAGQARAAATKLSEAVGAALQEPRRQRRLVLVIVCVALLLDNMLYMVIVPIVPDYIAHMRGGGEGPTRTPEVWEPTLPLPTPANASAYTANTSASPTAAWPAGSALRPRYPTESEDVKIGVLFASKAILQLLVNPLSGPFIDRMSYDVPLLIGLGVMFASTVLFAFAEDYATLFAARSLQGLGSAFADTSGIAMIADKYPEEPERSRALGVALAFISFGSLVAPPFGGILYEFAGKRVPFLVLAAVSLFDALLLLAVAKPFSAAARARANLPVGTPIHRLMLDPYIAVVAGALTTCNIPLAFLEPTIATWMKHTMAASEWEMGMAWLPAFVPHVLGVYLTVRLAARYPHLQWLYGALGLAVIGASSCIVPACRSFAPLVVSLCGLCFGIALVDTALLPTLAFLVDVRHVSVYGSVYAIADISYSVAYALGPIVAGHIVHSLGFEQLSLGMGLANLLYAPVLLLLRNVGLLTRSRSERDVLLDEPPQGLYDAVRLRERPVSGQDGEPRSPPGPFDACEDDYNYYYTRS
Procedure Details: Displacement of (-)-[3H]vesamicol from human VAChT expressed in rat PC12 cell membrane after 20 hrs
Assay type: cell membranes, PC-12
Assay Endpoint: pKi
// field semantics: pKi = negative decimal log of concentration (mol/L)

# pKi (molecule: Nc1cccc2c1C[C@@H](N1CCC(C(=O)c3cccnc3)CC1)[C@H](O)C2 (racemic) ) is 6.93

# pKi (molecule: CNc1ccc(C(=O)C2CCN(C3Cc4ccccc4CC3O)CC2)cc1 (single isomer, unassigned; (+)) ) is 7.72

# pKi (molecule: [11CH3]Nc1ccc(C(=O)C2CCN([C@H]3Cc4ccccc4C[C@@H]3O)CC2)cc1 ) is 9.11

# pKi (molecule: O=C(c1cccs1)C1CCN([C@@H]2Cc3ccccc3C[C@H]2O)CC1 (racemic) ) is 8.30

# pKi (molecule: COc1ccc(C(=O)C2CCN([C@@H]3Cc4ccccc4C[C@H]3O)CC2)cn1 (racemic) ) is 8.08

# pKi (molecule: Cc1ccc(C(=O)C2CCN([C@@H]3Cc4c(N)cccc4C[C@H]3O)CC2)cn1 (racemic) ) is 7.32

# pKi (molecule: COc1ccc(C(=O)C2CCN([C@@H]3Cc4c(N)cccc4C[C@H]3O)CC2)cn1 (racemic) ) is 7.63

---

Record form. Attribute: Ki. Fill in for each entry.
Tested System: Sigma non-opioid intracellular receptor 1 (Cavia porcellus, UniProt Q60492)
Sequence (Q60492 whole entry): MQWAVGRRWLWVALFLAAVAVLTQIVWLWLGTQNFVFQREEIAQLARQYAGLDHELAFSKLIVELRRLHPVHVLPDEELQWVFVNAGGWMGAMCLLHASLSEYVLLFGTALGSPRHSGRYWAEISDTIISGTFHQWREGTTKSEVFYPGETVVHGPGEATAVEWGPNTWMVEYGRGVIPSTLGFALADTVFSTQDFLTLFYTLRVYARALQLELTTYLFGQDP
Procedure Details: Displacement of (+)- [3H]pentazocine from sigma 1 receptor expressed in guinea pig brain membrane homogenates by scintillation counting analysis
Write the number in nM without appending the unit.

# Ki (compound: O=C(c1cncc(F)c1)C1CCN([C@@H]2Cc3ccccc3C[C@H]2O)CC1 (racemic) ) is 709

# Ki (compound: Cn1ccc(C(=O)C2CCN([C@@H]3Cc4ccccc4C[C@H]3O)CC2)cc1=O (racemic) ) is 3350

# Ki (compound: O=C(c1ncccc1OCCF)C1CCN([C@@H]2Cc3ccccc3C[C@H]2O)CC1 (racemic) ) is 20000

# Ki (compound: COc1ccc(C(=O)C2CCN([C@@H]3Cc4ccccc4C[C@H]3O)CC2)cn1 (racemic) ) is 986

# Ki (compound: Cn1cccc1C(=O)C1CCN([C@@H]2Cc3cccc(N)c3C[C@H]2O)CC1 (racemic) ) is 9240

# Ki (compound: Cn1cccc1C(=O)C1CCN([C@@H]2Cc3c(N)cccc3C[C@H]2O)CC1 (racemic) ) is 7660

# Ki (compound: COc1ccc(C(=O)C2CCN([C@@H]3Cc4c(N)cccc4C[C@H]3O)CC2)cn1 (racemic) ) is 5680

# Ki (compound: Cn1cccc1C(=O)C1CCN([C@@H]2Cc3ccccc3C[C@H]2O)CC1 (racemic) ) is 1300

# Ki (compound: O=C(c1ccc(OCCF)nc1)C1CCN([C@@H]2Cc3ccccc3C[C@H]2O)CC1 (racemic) ) is 2120

# Ki (compound: CNc1ccc(C(=O)C2CCN([C@@H]3Cc4ccccc4C[C@H]3O)CC2)cc1 (racemic) ) is 305
